# SYSTEM: T1, human calcitonin receptor (hCTR) (human, UniProt P30988 25-474)
# T1 sequence (looked up): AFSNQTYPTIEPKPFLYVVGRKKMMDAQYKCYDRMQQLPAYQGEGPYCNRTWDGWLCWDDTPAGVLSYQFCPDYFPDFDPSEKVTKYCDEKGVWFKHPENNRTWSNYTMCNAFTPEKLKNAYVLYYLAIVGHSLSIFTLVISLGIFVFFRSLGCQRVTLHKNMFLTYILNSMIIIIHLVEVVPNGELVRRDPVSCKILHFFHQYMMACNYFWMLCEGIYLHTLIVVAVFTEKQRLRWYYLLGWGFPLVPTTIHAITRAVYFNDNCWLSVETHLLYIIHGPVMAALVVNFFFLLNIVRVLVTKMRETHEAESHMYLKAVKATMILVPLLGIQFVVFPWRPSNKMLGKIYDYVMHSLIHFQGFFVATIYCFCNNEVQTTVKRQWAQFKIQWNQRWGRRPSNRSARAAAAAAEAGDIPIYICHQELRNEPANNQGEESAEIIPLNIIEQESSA
# ASSAY_PROTOCOL: cell-based or functional assay
Numbered stars: 1 amine (or outer) side, 2 acyl side, 3 side chain; on linkers, the order of the positions; unused ones are H or OH. Bridge positions count the residues as written; N and C are the ends. Square brackets hold non-standard residues; d marks the D form. Side chains are listed from the residue outwards. Ends that are not written are not given here. * marks the point of attachment. C20 diacid = O=C(O)CCCCCCCCCCCCCCCCCCC(=O)*; γGlu = O=C(O)[C@H](CCC(=O)[*:2])N[*:1]; αMeF = C[C@](N)(Cc1ccccc1)C(=O)O; NMeD = CN[C@@H](CC(=O)O)C(=O)O; NMeN = CN[C@@H](CC(N)=O)C(=O)O; Orn = NCCC[C@H](N)C(=O)O; AEEA = NCCOCCOCC(=O)O; CH2 = C([*:1])[*:2]
EXPERIMENTAL_READOUT: hCTR cAMP EC50

[γGlu]CNTATCATGKLAEFLVRSSNNFGPK([AEEA-AEEA-γGlu-C20 diacid])LPPTEVGSNTY-NH2 (bridge 2-7 via CH2) [Compound IX] : 18.9 nM
[γGlu]CNTATCATG[Orn]LAE[αMeF]LVRSSN[NMeN]FGPKLPPTEVGSNTY-NH2 (bridge 2-7 via CH2) [Compound I] : 18 nM
[γGlu]CNTATCATQ[Orn]LAEFLVRSSNNFGPK([AEEA-AEEA-γGlu-C20 diacid])LPPTEVGSNTY-NH2 (bridge 2-7 via CH2) [Compound XII] : 25.9 nM
K([γGlu-γGlu-C20 diacid])CETATCATG[Orn]LAE[αMeF]LVRSSN[NMeD]FGPILPPTEVGSNTY-NH2 (bridge 2-7 via CH2, Acylated form of Compound V) [Compound VI] : 13.2 nM
KCETATCATG[Orn]LAE[αMeF]LVRSSN[NMeD]FGPILPPTEVGSNTY-NH2 (bridge 2-7 via CH2) [Compound V] : 17 nM
